Test system: OVCAR-4 ovarian
Experiment: NCI-60 one-dose screen, 48 h
Conditions: 10 µM unless noted
This is part of a sample that, as a whole, favours compounds with a hit. Of some 83,000 tested, about 20% had one in any assay. Activity calls are given as the source filed them. The calls were made as follows: active = growth percent below 10; inactive = the rest.
API: response.call in yes for active, no for inactive

Inquiry: For "CCOC(=O)c1c(NCC(=O)Nc2ccc(Br)cc2)sc2c1CCCC2" , what call appears in the results of this test?
Reply text: no

Inquiry: What is the recorded call for this compound in the test? "O=C1[C@H]2Cc3c([nH]c4ccccc34)[C@@H](c3c(Cl)cccc3Cl)N2C(=O)CN1C1CCN(Cc2ccccc2)CC1"
Reply text: no

Inquiry: Please share the test call associated with "C[C@H]1[C@H](C)CC[C@]2(COC(=O)c3cccnc3)CC[C@]3(C)C(=CC[C@@H]4[C@@]5(C)CCCNC(C)(C)[C@@H]5CC[C@]43C)[C@H]12" .
Reply text: no

Inquiry: Record request — test call for "Clc1ccc(-c2nc3ccc(/C(=N\N=C\c4ccccc4)c4ccccc4)cc3[nH]2)cc1"
Reply text: no

Inquiry: Each compound tested received a call. Report the one for "CCN1CCN(c2cc(C(=O)Nc3nc4ccc(Oc5ccnc(C(=O)NC)c5)cc4s3)cc(C(F)(F)F)c2)CC1" .
Reply text: no

Inquiry: How did this test come out for "N#C/C(=C\c1ccc(Cl)cc1Cl)C(N)=O" ?
Reply text: no

Inquiry: Could you check what this test reported for "O=c1[nH]c(CCl)nc2c1cnn2-c1ccccc1" ?
Reply text: no

Inquiry: // return assay outcome for "CCOC(=O)c1c(NC(=O)c2cccc(C(F)(F)F)c2)sc2c(CN3CCN(C)CC3)c(O)ccc12"
Reply text: no

Inquiry: Give the logged outcome of this assay for the following compound: "CCCCCCNC(=O)Oc1ccc(/C(=C(\C)c2ccc(Cl)cc2)c2ccc(OCCN(C)C)cc2)cc1"
Reply text: no

Inquiry: Please share the test call associated with "C=C(C)[C@@H]1CC[C@]2(C(=O)NCCCN(CCC#N)CCC#N)CC[C@]3(C)[C@H](CC[C@@H]4[C@@]5(C)CCC(=O)C(C)(C)[C@@H]5CC[C@]43C)[C@@H]12" .
Reply text: no

Inquiry: Could you check what this test reported for CC1(C)CC[C@]2(C(=O)O)CC[C@]3(C)C(=CCC4[C@@]5(C)C[C@@H](O)[C@@H]6OC(c7ccccc7O)OC[C@@]6(C)C5CC[C@]43C)C2C1 (some centres not stated) ?
Reply text: no

Inquiry: Recorded test outcome, item "Cc1cn(-c2cc(NC(=O)c3cncc(C#Cc4cnc5ccc(O[C@@H]6CCOC6)nn45)c3)cc(C(F)(F)F)c2)cn1"
Reply text: yes

Inquiry: Recorded test outcome, item CCCC(=O)NC(c1cccnc1)c1cc(C(C)=O)c2cccnc2c1O (configuration not stated)
Reply text: no

Inquiry: Called result for "COc1ccc(-c2ccc3c4c(cccc24)C(=O)N(N2C(=O)c4cccc5cccc(c45)C2=O)C3=O)cc1"
Reply text: no

Inquiry: State the result this test recorded for "O=C1c2c(c3c4ccc(Br)cc4oc3c3[nH]c4ccccc4c23)C(=O)N1CCO" .
Reply text: no

Inquiry: Just curious, what result did "Cn1cc(-c2nn3cc(-c4cccnc4)nc3s2)c2ccccc21" get here?
Reply text: no

Inquiry: Write down the call the test reported for this compound. Item: "CC(=O)Oc1ccc(CCN2C(=O)CSC2=S)cc1"
Reply text: no
